For each of the binders below, state its kon.
# TARGET OF ASSAY: T1, recombinant human CEACAM5 (human, UniProt P06731 35-685, limits assumed)
# T1 construct: Immobilised by amine coupling on a CM5 chip
# T1 sequence (looked up): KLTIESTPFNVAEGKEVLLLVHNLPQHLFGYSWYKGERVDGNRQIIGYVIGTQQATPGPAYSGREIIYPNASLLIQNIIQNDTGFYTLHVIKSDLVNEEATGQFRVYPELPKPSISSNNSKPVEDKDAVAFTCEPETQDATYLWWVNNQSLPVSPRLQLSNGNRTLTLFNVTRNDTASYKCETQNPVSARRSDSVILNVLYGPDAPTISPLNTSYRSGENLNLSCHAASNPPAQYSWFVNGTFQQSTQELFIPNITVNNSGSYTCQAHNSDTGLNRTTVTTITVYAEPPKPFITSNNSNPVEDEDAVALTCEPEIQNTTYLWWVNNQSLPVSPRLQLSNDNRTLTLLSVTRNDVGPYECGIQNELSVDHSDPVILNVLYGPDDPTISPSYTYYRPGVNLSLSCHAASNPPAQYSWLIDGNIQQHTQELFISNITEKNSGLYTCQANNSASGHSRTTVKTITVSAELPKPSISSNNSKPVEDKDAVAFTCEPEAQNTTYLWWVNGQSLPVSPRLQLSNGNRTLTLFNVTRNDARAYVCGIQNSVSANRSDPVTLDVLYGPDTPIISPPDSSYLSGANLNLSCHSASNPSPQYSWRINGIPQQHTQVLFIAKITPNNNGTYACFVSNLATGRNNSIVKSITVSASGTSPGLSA
# METHOD: SPR on CEACAM5 (Example 2; method not restated, as Example 1)
Numbers only; they are read as M⁻¹ s⁻¹.

Query: kon; subject: T039400052 (VHH, Single lysine at 73; also called HIS6-ENLYFQS-5GS-A0315007E07K43R, K64R, N73K, K75R) VHH: EVQLVESGGGVVQPGGSLRLSCAASGLTFSTYTMGWFRQAPGREREFVAAIIWSGSNTYYADSVRGRFTISRDKARNTVYLQMNSLRPEDTALYYCAAQHFGPIGLTTRGYHYWGQGTLVTVSS
441000

Query: kon; subject: T039400047 (VHH, Single lysine at 64; also called HIS6-ENLYFQS-5GS-A0315007E07(K43R, K75R)) VHH: EVQLVESGGGVVQPGGSLRLSCAASGLTFSTYTMGWFRQAPGREREFVAAIIWSGSNTYYADSVKGRFTISRDNARNTVYLQMNSLRPEDTALYYCAAQHFGPIGLTTRGYHYWGQGTLVTVSS
493000
